Test system: 786-0 renal
ASSAY: NCI tumour cell line growth inhibition, 48 h; in the data active means GI50 below about 0.43 µM; inactive means the rest
Respond with a class label; see yes (1) = active, no (0) = inactive

See these solved cases before continuing.
{"columns": ["MOLECULE", "EXPERIMENTAL_SYSTEM", "CLASS_LABEL"],
 "data": [
  ["COc1ccc(CNCCCN2C(=O)c3ccc4c5c(ccc(c35)C2=O)C(=O)N(CCCNCc2ccc(OC)c(OC)c2OC)C4=O)c(OC)c1OC", "786-0 renal", "yes (1)"],
  ["COc1ccc2nc3c(cc2c1)C(=O)CC(c1ccccc1)C3 (stereo not drawn)", "786-0 renal", "no (0)"],
  ["CCN1C(=O)N(CC)C2C1NN=c1s/c(=C\\c3ccc(C(F)(F)F)cc3)c(=O)n12 (stereo not drawn)", "786-0 renal", "no (0)"],
  ["O=C(c1ccc2ccccc2c1)c1c(C(F)(F)F)n([O-])c2cc(C(F)(F)F)ccc2[n+]1=O", "786-0 renal", "no (0)"],
  ["CC[C@]12C=CCN3CC[C@@]4(c5ccc(OC)cc5N(C)[C@H]4[C@@](O)(C(=O)OC)[C@@H]1OC(=O)CCC(=O)O[C@H]1CC[C@H]4[C@@H]5CC[C@H]6CC(=O)CC[C@]6(C)[C@H]5CC[C@]14C)[C@@H]32", "786-0 renal", "no (0)"]
]}

# outcome recorded in this test, key = O=c1oc2ccc(Cl)cc2c(=O)n1-c1ccc(F)cc1F
no (0)

Again, but for CC(=O)Nc1ccc(OC(C)=O)cc1
yes (1)

Again, but for CCOC(=O)Nc1ccc2c(c1)C(=O)N(CC)c1ccccc1O2
no (0)

* * *

Test system: K-562 leukemia
ASSAY: NCI tumour cell line growth inhibition, 48 h
PROPERTY_LABEL: TGI

{"columns": ["COMPOUND", "EXPERIMENTAL_SYSTEM", "TGI"],
 "data": [
  ["O=C(CC1(O)C(=O)Nc2ccc([N+](=O)[O-])cc21)c1ccncc1 (stereo unspecified)", "K-562 leukemia", "75.1 µM"]
]}

Name the recorded TGI for C/C(CC(C)(C)N1CC1)=N\NC(=O)Nc1cccc2ccccc12 .
24.5 µM

Again, but for CNS(=O)(=O)NNS(=O)(=O)c1ccc(F)cc1
> 100 µM

Again, but for COc1ccccc1NC(=O)CC(=O)n1nc(C)c(N=Nc2ccccc2Cl)c1C
> 100 µM

Again, but for COC(=O)/C(=N\NC(N)=O)C(C#N)c1ccccc1 (stereo unspecified)
> 100 µM

Again, but for CCOC(=O)C(NC(=O)c1ccccc1)(c1ccc(S(=O)(=O)Nc2onc(C)c2C)cc1)C(F)(F)F (stereo unspecified)
> 100 µM

Again, but for COc1cc2c(/C=C3/C(=O)Nc4ccc(O)cc43)c(Cl)n(Cc3cc(OC)c(OC)c(OC)c3)c2cc1C
> 31.6 µM

Again, but for CO/N=C(/C(=O)Nc1c[n+](CC(=O)[O-])cs1)c1csc(N)n1
> 100 µM

Again, but for S=C1SCN(Cc2ccccc2)CN1Cc1ccccc1
9 µM

Again, but for CC(=O)Nc1ccc(OC(C)=O)cc1
> 57.2 µM

Again, but for COn1oc(=O)c2ccccc21
> 100 µM

* * *

Test system: HCT-116 colon
ASSAY: NCI tumour cell line growth inhibition, 48 h
PROPERTY_LABEL: TGI

{"columns": ["COMPOUND", "TGI"],
 "data": [
  ["O=C(Nc1n[nH]c2nc(-c3ccc(O)cc3)c(Br)cc12)C1CC1", "> 25 µM"],
  ["COc1cc(NC(C)=O)ccc1C(=O)N/N=C/c1ccco1", "> 100 µM"],
  ["CCOC(=O)c1c(-c2ccc(OC)c(O)c2)c(C#N)c(=S)n(C2OC(COC(C)=O)C(OC(C)=O)C(OC(C)=O)C2OC(C)=O)c1-c1ccccc1 (stereo not given)", "> 100 µM"],
  ["O=c1c(C(c2ccc([N+](=O)[O-])cc2)c2c(O)c3ccccc3n(-c3ccccc3)c2=O)c(O)c2ccccc2n1-c1ccccc1", "76.5 µM"]
]}

For the record Cn1ccc(=NS(=O)(=O)c2ccccc2)cc1 , what value of TGI is listed for HCT-116 colon?
> 100 µM

Again, but for NNc1nc2ccccc2o1
> 100 µM

Again, but for CCc1cccc(NC(=O)Nc2ccc(Oc3ccc4nc(NC(=O)OC)[nH]c4c3)cc2)c1
> 14.9 µM

Again, but for COc1ccc(C[C@]23CCC(=O)N2CCc2cc(OC)c(O)cc23)cc1O
> 100 µM

Again, but for Cc1c[nH]c(=O)n(Cc2nnc(CCC(=O)c3nc4ccccc4[nH]3)o2)c1=O
> 89.8 µM

Again, but for CC(=O)OCC1=CC2OC(=O)C3=COC(OC4OC(CO)C(O)C(O)C4O)C1C32 (stereo not given)
> 100 µM

Again, but for CCN1C(=O)N(CC)C2C1NN=c1s/c(=C\c3ccc(C(F)(F)F)cc3)c(=O)n12 (stereo not given)
> 32.8 µM

Again, but for CN/N=C(\C)C(CN1CCCCC1)C(C1=C(O)c2ccccc2OC1)c1ccccc1 (stereo not given)
> 100 µM

Again, but for C/C=C\C(CC(=O)NCCC1CN(C(=O)OCc2ccccc2)c2ccccc21)CC(=O)OC (stereo not given)
> 100 µM

Again, but for C#CC(C)(C)OCCCCOc1cc(O)c2c(=O)c3ccccc3n(C)c2c1
> 100 µM

Again, but for C1=CCC[C@@H]2CN3CCCC/C=C\CCCC[C@H]4C[C@H](CN(CCCCCCCC1)C4)[C@H]2CC3
16.3 µM

Again, but for COc1ccc2nc3cc([N+](=O)[O-])ccc3c(Nc3ccc(S(=O)(=O)Nc4ncccn4)cc3)c2c1
> 100 µM

Again, but for Cc1ccc2[nH]c(C(=O)NN3C(=O)C(C)SC34CCC(C)CC4)c(-c3ccccc3)c2c1 (stereo not given)
34.5 µM

Again, but for O=C1NC(=NCc2ccc(F)cc2)N/C1=C\c1ccccc1Cl
30.3 µM

Again, but for COC(=O)CCC(=O)c1ccc2c(c1)CC1(C2)Cc2ccc(C(=O)CCC(=O)OC)cc2C1
> 100 µM

Again, but for CSc1nc(-c2ccccc2)nc(C(C#N)C#N)n1
> 100 µM

* * *

The entries below come with measured TGI values attached.
Test system: U251 CNS
ASSAY: NCI tumour cell line growth inhibition, 48 h
// note: answer is a bare numeric in µM

Solved entries:
{"columns": ["SMILES", "TGI / µM"],
 "data": [
  ["O=C1/C(=C/c2ccc(F)cc2)CN(C(=O)C(Cl)Cl)C/C1=C\\c1ccc(F)cc1", 0.335],
  ["O=c1[nH]nc(CNc2ccc(Cl)cc2Cl)c2ccccc12", 37.9],
  ["C#Cc1cccc(NC(=O)c2cccc(NC(=O)CCl)c2)c1", 28.4]
]}

Please examine the following record next.
Name the recorded TGI for Cc1ccc2[nH]c(O)c(N=Nc3ccccc3[N+](=O)[O-])c2c1 .
18.6

* * *

System: NCI-H522 lung
ASSAY: NCI tumour cell line growth inhibition, 48 h
PROPERTY_LABEL: TGI (µM)
// note: answer is a bare numeric in µM

{"columns": ["MOLECULE", "PROPERTY_LABEL", "EXPERIMENTAL_RESULT"],
 "data": [
  ["CN(/N=C/c1ccccc1O)c1ccc2ccccc2n1", "TGI", 80.9],
  ["O=c1oc2cc(O)ccc2c2oc3cc(O)ccc3c12", "TGI", 31.9],
  ["O=C1NC(=NCc2ccc(F)cc2)N/C1=C\\c1ccccc1Cl", "TGI", 30.4],
  ["COc1ccc(C(=O)CCN(C)C)c2ccccc12", "TGI", 21.9]
]}

Name the recorded TGI for COCN1C(=N)C(C(=O)OC(C)(C)C)=C2C=C(O)C=CC21C (stereo not given) .
13.5

Again, but for Cc1ccc(-c2nc(/C=N/Nc3cc(C)nc4ccc(Br)cc34)c(C)o2)cc1
4.13

* * *

Tested on: SN12C renal
ASSAY: NCI tumour cell line growth inhibition, 48 h
The entries below come with measured TGI values attached.

Solved entries:
{"columns": ["MOLECULE", "EXPERIMENTAL_RESULT"],
 "data": [
  ["Cc1ccc2nc(CN(CCO)CCO)cc(=O)n2c1", "> 100 µM"],
  ["COc1cc2c(c(OC)c1OC)-c1c(c3ccc([N+](=O)[O-])cc3c(=O)n1CCCBr)C2=O", "> 100 µM"],
  ["Cc1nc(C)c(N2CCN(S(N)(=O)=O)CC2)c(=O)[nH]1", "> 100 µM"],
  ["O=c1[nH]nc(CNc2ccc(Cl)cc2Cl)c2ccccc12", "97 µM"],
  ["CCOC(=O)C(NC(=O)c1cccc(Cl)c1)(Nc1ccc(S(=O)(=O)Nc2cc(C)nc(C)n2)cc1)C(F)(F)F (configuration not stated)", "> 100 µM"],
  ["CCCCCCCC(=O)OCC1OC(n2cc(F)c(=O)[nH]c2=O)C(N)C(O)C1O (configuration not stated)", "> 100 µM"],
  ["COc1cc(NS(C)(=O)=O)ccc1Cc1c2ccccc2nc2ccccc12", "1.17 µM"],
  ["CN(C)CCN(C)C(=O)c1cccc2cccc(C(=O)O)c12", "> 100 µM"],
  ["CN/N=C(\\C(=O)Nc1ccc(C(F)(F)F)cc1[N+](=O)[O-])C(c1cnc2ccc([N+](=O)[O-])cc2n1)[N+](=O)[O-] (configuration not stated)", "> 100 µM"],
  ["COc1cc(NC(C)=O)ccc1C(=O)N/N=C/c1ccco1", "> 100 µM"]
]}

Name the recorded TGI for COc1cc2c3c(n(CCCn4cncn4)c(=O)c2cc1OC)-c1cc2c(cc1C3=O)OCO2 .
> 100 µM

Again, but for COc1ccc(-c2oc3c(OC)c(OC)c(OC)c(O)c3c(=O)c2OC)cc1O
> 100 µM

Again, but for COc1cc2c(cc1O)c(=O)n(CCN(C)C)c1c3cc4c(cc3ncc21)OCO4
10.5 µM
